# PROCEDURE_TEXT: In vivo pig model: absorption of active agent from SNAC/SSG tablets with or without small proton-accepting agent
# Set-up: species or system mini-pigs
# RUN_CONDITIONS: both sexes, minipig, octreotide, SSG 11% by weight formulation further including sodium decanoate (C10), mini-pigs, preliminary data, read-out: Cmax
ENDPOINT_NAME: Cmax (ng/mL)

compound="C[C@@H](O)[C@@H]1NC(=O)[C@H](CCCCN)NC(=O)[C@@H](Cc2c[nH]c3ccccc23)NC(=O)[C@H](Cc2ccccc2)NC(=O)[C@@H](NC(=O)[C@H](N)Cc2ccccc2)CSSC[C@@H](C(=O)N[C@H](CO)[C@@H](C)O)NC1=O [octreotide]" val=2.94
